System: CEM cells
Assay: Cytotoxicity, CEM human T-lymphocytes
Conditions: IC50 T-lymphocytes (CEM)/IC50 P388
measurement label: TIP388 (CEM cells)
Answers are plain numbers.

INPUT: Report TIP388 (CEM cells), nothing else, for this compound: CCN1CCC(O)(c2ccc(OC)cc2)C(C(=O)c2ccc(OC)cc2)C1 (centres unmarked) [Compound 11e]
OUTPUT: 9.57

INPUT: Dear colleague, please send me the reported TIP388 (CEM cells) for CCN1CCC(O)(/C=C/c2ccc(C)c(C)c2)C(C(=O)/C=C/c2ccc(C)c(C)c2)C1 (centres unmarked) [Compound 13b] when you can.
OUTPUT: 11.89

INPUT: Read off the recorded TIP388 (CEM cells) for CC[N+]1(C)CCC(O)(/C=C/c2ccc(Cl)c(Cl)c2)C(C(=O)/C=C/c2ccc(Cl)c(Cl)c2)C1 (centres unmarked) [Compound 10c]
OUTPUT: 25.78

INPUT: Identify measured TIP388 (CEM cells) corresponding to CC[N+]1(C)CCC(O)(c2ccc(Cl)c(Cl)c2)C(C(=O)c2ccc(Cl)c(Cl)c2)C1 (centres unmarked) [Compound 12c]
OUTPUT: 11.20

Return reported TIP388 (CEM cells) values for all items listed beneath this line.
1. CCN1CCC(O)(/C=C/c2ccccc2)C(C(=O)/C=C/c2ccccc2)C1 (centres unmarked) [Compound 9a]
2. CCN1CCC(O)(/C=C/c2ccc(C)cc2)C(C(=O)/C=C/c2ccc(C)cc2)C1 (centres unmarked) [Compound 9d]
3. O=C(CCN1CCN(CCC(=O)c2ccccc2)CC1)c1ccccc1 [Compound 8b]
4. O=C(/C=C/c1ccccc1)CCN1CCN(CCC(=O)/C=C/c2ccccc2)CC1 [Compound 8a]

OUTPUT:
[11.81, 6.69, 5.64, 3.95]

###

Tested on: P388 cells
Test: Cytotoxicity, murine P388 leukemic cells (P388 D1)
Conditions: read-out: P388 cells IC50
Structures can show the parent of a compound that is named as a salt.
measurement label: IC50 (nM)
Answers are plain numbers, in nM.

INPUT: Using P388 cells as the test system, report measured IC50 of CCN1CCC(O)(c2ccccc2)C(C(=O)c2ccccc2)C1 (centres unmarked) [Compound 11a] .
OUTPUT: 1070

INPUT: Give IC50; test system P388 cells; compound CC[N+]1(C)CCC(O)(/C=C/c2ccc(C)cc2)C(C(=O)/C=C/c2ccc(C)cc2)C1 (centres unmarked) [Compound 10d]
OUTPUT: 620

INPUT: State IC50 on P388 cells. Entry: `CCN(CC)CCC(=O)/C=C/c1ccc(C)cc1`
OUTPUT: 1100

INPUT: Under P388 cells, report IC50 for CCN1CCC(O)(c2ccc(OC)cc2)C(C(=O)c2ccc(OC)cc2)C1 (centres unmarked) [Compound 11e]
OUTPUT: 4170

INPUT: Report its IC50 with P388 cells as the test system: `O=C(/C=C/c1ccccc1)CCN1CCN(CCC(=O)/C=C/c2ccccc2)CC1`
OUTPUT: 620

Kindly give each listed record's IC50.
1. CCN(CC)CCC(=O)c1ccc(C)cc1
2. CCN(CC)CCC(=O)c1ccc(Cl)cc1
3. CCN1CCC(O)(/C=C/c2ccccc2)C(C(=O)/C=C/c2ccccc2)C1 (centres unmarked)
4. CCN1CCC(O)(c2ccc(Cl)c(Cl)c2)C(C(=O)c2ccc(Cl)c(Cl)c2)C1 (centres unmarked) [Compound 11c]
5. CC[N+]1(C)CCC(O)(c2ccc(Cl)c(Cl)c2)C(C(=O)c2ccc(Cl)c(Cl)c2)C1 (centres unmarked) [Compound 12c]

OUTPUT:
2200
3200
1400
3110
2300

List the reported IC50 of each compound below.
1. CCN1CCC(O)(/C=C/c2ccc(Cl)cc2)C(C(=O)/C=C/c2ccc(Cl)cc2)C1 (centres unmarked) [Compound 9b, hydrochloride]
2. CCN(CC)CCC(=O)/C=C/c1ccccc1
3. CCN1CCC(O)(c2ccc(C)cc2)C(C(=O)c2ccc(C)cc2)C1 (centres unmarked) [Compound 11d]
4. O=C(CCN1CCN(CCC(=O)c2ccccc2)CC1)c1ccccc1
5. CCN(CC)CCC(=O)/C=C/c1ccc(Cl)cc1
6. CCN(CC)CCC(=O)c1ccccc1

OUTPUT:
1100
1700
8600
2840
300
2600

Need IC50 for each of these compounds.
1. CCN(CC)CC(C)(C)C(=O)/C=C/c1ccc(Cl)cc1
2. CC[N+]1(C)CCC(O)(c2ccccc2)C(C(=O)c2ccccc2)C1 (centres unmarked) [Compound 12a]
3. CCN(CC)CCC(=O)/C=C/c1ccc(Cl)c(Cl)c1
4. CCN1CCC(O)(/C=C/c2cccc(C)c2)C(C(=O)/C=C/c2cccc(C)c2)C1 (centres unmarked) [Compound 13a]
5. CCN1CCC(O)(/C=C/c2ccc(C)cc2)C(C(=O)/C=C/c2ccc(C)cc2)C1 (centres unmarked)
6. CC[N+]1(C)CCC(O)(/C=C/c2ccccc2)C(C(=O)/C=C/c2ccccc2)C1 (centres unmarked) [Compound 10a]
7. CCN1CCC(O)(/C=C/c2ccc(C)c(C)c2)C(C(=O)/C=C/c2ccc(C)c(C)c2)C1 (centres unmarked) [Compound 13b]

OUTPUT:
2200
1300
390
1890
2100
2270
2590

Field: IC50. Fill in for each record below.
1. CCN1CCC(O)(c2ccc(Cl)cc2)C(C(=O)c2ccc(Cl)cc2)C1 (centres unmarked) [Compound 11b]
2. CCN1CCC(O)(/C=C/c2ccc(Cl)c(Cl)c2)C(C(=O)/C=C/c2ccc(Cl)c(Cl)c2)C1 (centres unmarked)

OUTPUT:
5140
400

Hi! Can you tell me IC50 for each of these compounds?
1. CC[N+]1(C)CCC(O)(c2ccc(Cl)cc2)C(C(=O)c2ccc(Cl)cc2)C1 (centres unmarked) [Compound 12b]
2. CC[N+]1(C)CCC(O)(c2ccc(C)cc2)C(C(=O)c2ccc(C)cc2)C1 (centres unmarked) [Compound 12d]
3. CC[N+]1(C)CCC(O)(c2ccc(OC)cc2)C(C(=O)c2ccc(OC)cc2)C1 (centres unmarked) [Compound 12e]
4. CCN(CC)CCC(=O)/C=C/c1ccc(OC)cc1
5. CCN1CCC(O)(/C=C/c2ccc(OC)cc2)C(C(=O)/C=C/c2ccc(OC)cc2)C1 (centres unmarked)
6. CC[N+]1(C)CCC(O)(/C=C/c2ccc(Cl)c(Cl)c2)C(C(=O)/C=C/c2ccc(Cl)c(Cl)c2)C1 (centres unmarked) [Compound 10c]
7. CCN1CCC(O)(c2ccc(O)cc2)C(C(=O)c2ccc(O)cc2)C1 (centres unmarked) [Compound 11f]

OUTPUT:
1500
2100
980
670
5000
640
1400

Reference source for all entries: patent US6017933A
